- System: HSSY-II complex spheroid growth, percent test/control
- Assay Method Text: Anticancer human tumor HSSY-II cell line growth inhibition [Asc];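 note: spheroids exposed to drug for 7 days before reading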
- Test Conditions: second compound 0.949 µM; first compound 3.16 µM; hits give low values
Observed Property: viability, T/C (%)
Give bare numbers, in %.

Reference set, count: 3
C#Cc1c(F)ccc2cc(O)cc(-c3ncc4c(N5CC6CCC(C5)N6)nc(OCC56CCCN5CC(F)C6)nc4c3F)c12 (centres undefined) + CCN1C(C(=O)NC23CCC(C(=O)O)(CC2)CC3)C(c2cccc(Cl)c2F)C2(C(=O)Nc3cc(Cl)ccc32)C12CCCCC2 ... 5.67
C=C(F)C(=O)N1CCN(c2nc(OCC3CCCN3C)nc3c2CCN(c2cccc4cccc(Cl)c24)C3)CC1CC#N (centres undefined) + CCN1C(C(=O)NC23CCC(C(=O)O)(CC2)CC3)C(c2cccc(Cl)c2F)C2(C(=O)Nc3cc(Cl)ccc32)C12CCCCC2 ... 0.07
C=CC(=O)N1CCN(c2nc(=O)n(-c3c(C)ccnc3C(C)C)c3nc(-c4c(O)cccc4F)c(F)cc23)C(C)C1 (centres undefined) + CCN1C(C(=O)NC23CCC(C(=O)O)(CC2)CC3)C(c2cccc(Cl)c2F)C2(C(=O)Nc3cc(Cl)ccc32)C12CCCCC2 ... 6.22

Read the next record carefully.
Find the measured viability, T/C: item O=C(c1cc(Cc2n[nH]c(=O)c3ccccc23)ccc1F)N1CCN(C(=O)C2CC2)CC1 + CCN1C(C(=O)NC23CCC(C(=O)O)(CC2)CC3)C(c2cccc(Cl)c2F)C2(C(=O)Nc3cc(Cl)ccc32)C12CCCCC2 , target or system HSSY-II complex spheroid growth, percent test/control.
6.79

###

- System: HSSY-II complex spheroid growth, percent test/control
- Assay Method Text: Anticancer human tumor HSSY-II cell line growth inhibition [Asc];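 note: spheroids exposed to drug for 7 days before reading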
- Test Conditions: second compound 0.01 µM; first compound 0.316 µM; hits give low values
Observed Property: viability, T/C (%)
Give bare numbers, in %.

C#Cc1c(F)ccc2cc(O)cc(-c3ncc4c(N5CC6CCC(C5)N6)nc(OCC56CCCN5CC(F)C6)nc4c3F)c12 (configuration not stated) + CNC(C)C(=O)NC1CN(S(=O)(=O)c2cccc(S(=O)(=O)N3CCC4CCC(C(=O)NC(c5ccccc5)c5ccccc5)N4C(=O)C(NC(=O)C(C)NC)C3)c2)CCC2CCC(C(=O)NC(c3ccccc3)c3ccccc3)N2C1=O ... 94
C=CC(=O)N1CCN(c2nc(=O)n(-c3c(C)ccnc3C(C)C)c3nc(-c4c(O)cccc4F)c(F)cc23)C(C)C1 (configuration not stated) + CNC(C)C(=O)NC1CN(S(=O)(=O)c2cccc(S(=O)(=O)N3CCC4CCC(C(=O)NC(c5ccccc5)c5ccccc5)N4C(=O)C(NC(=O)C(C)NC)C3)c2)CCC2CCC(C(=O)NC(c3ccccc3)c3ccccc3)N2C1=O ... 107
CCN1CCN(Cc2ccc(Nc3ncc(F)c(-c4cc(F)c5nc(C)n(C(C)C)c5c4)n3)nc2)CC1 + CNC(C)C(=O)NC1CN(S(=O)(=O)c2cccc(S(=O)(=O)N3CCC4CCC(C(=O)NC(c5ccccc5)c5ccccc5)N4C(=O)C(NC(=O)C(C)NC)C3)c2)CCC2CCC(C(=O)NC(c3ccccc3)c3ccccc3)N2C1=O ... 39.9
O=C(c1cc(Cc2n[nH]c(=O)c3ccccc23)ccc1F)N1CCN(C(=O)C2CC2)CC1 + CNC(C)C(=O)NC1CN(S(=O)(=O)c2cccc(S(=O)(=O)N3CCC4CCC(C(=O)NC(c5ccccc5)c5ccccc5)N4C(=O)C(NC(=O)C(C)NC)C3)c2)CCC2CCC(C(=O)NC(c3ccccc3)c3ccccc3)N2C1=O ... 91.5
O=C(c1ccc(F)c(F)c1Nc1ccc(I)cc1F)N1CC(O)([C@@H]2CCCCN2)C1 + CNC(C)C(=O)NC1CN(S(=O)(=O)c2cccc(S(=O)(=O)N3CCC4CCC(C(=O)NC(c5ccccc5)c5ccccc5)N4C(=O)C(NC(=O)C(C)NC)C3)c2)CCC2CCC(C(=O)NC(c3ccccc3)c3ccccc3)N2C1=O ... 82.2
COc1c(OCCCN2CCOCC2)ccc2c3n(c(=NC(=O)c4cnc(N)nc4)nc12)CCN3 + CNC(C)C(=O)NC1CN(S(=O)(=O)c2cccc(S(=O)(=O)N3CCC4CCC(C(=O)NC(c5ccccc5)c5ccccc5)N4C(=O)C(NC(=O)C(C)NC)C3)c2)CCC2CCC(C(=O)NC(c3ccccc3)c3ccccc3)N2C1=O ... 22.4

Find the measured viability, T/C: item C=C(F)C(=O)N1CCN(c2nc(OCC3CCCN3C)nc3c2CCN(c2cccc4cccc(Cl)c24)C3)CC1CC#N (configuration not stated) + CNC(C)C(=O)NC1CN(S(=O)(=O)c2cccc(S(=O)(=O)N3CCC4CCC(C(=O)NC(c5ccccc5)c5ccccc5)N4C(=O)C(NC(=O)C(C)NC)C3)c2)CCC2CCC(C(=O)NC(c3ccccc3)c3ccccc3)N2C1=O , target or system HSSY-II complex spheroid growth, percent test/control.
61.4
